# credit: the supplement of paper PMC3545927

System tested: furin, P09958;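 note: purified furin at 1:10 enzyme:substrate in 50 mM HEPES pH 7.5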
Sequence (P09958 whole entry): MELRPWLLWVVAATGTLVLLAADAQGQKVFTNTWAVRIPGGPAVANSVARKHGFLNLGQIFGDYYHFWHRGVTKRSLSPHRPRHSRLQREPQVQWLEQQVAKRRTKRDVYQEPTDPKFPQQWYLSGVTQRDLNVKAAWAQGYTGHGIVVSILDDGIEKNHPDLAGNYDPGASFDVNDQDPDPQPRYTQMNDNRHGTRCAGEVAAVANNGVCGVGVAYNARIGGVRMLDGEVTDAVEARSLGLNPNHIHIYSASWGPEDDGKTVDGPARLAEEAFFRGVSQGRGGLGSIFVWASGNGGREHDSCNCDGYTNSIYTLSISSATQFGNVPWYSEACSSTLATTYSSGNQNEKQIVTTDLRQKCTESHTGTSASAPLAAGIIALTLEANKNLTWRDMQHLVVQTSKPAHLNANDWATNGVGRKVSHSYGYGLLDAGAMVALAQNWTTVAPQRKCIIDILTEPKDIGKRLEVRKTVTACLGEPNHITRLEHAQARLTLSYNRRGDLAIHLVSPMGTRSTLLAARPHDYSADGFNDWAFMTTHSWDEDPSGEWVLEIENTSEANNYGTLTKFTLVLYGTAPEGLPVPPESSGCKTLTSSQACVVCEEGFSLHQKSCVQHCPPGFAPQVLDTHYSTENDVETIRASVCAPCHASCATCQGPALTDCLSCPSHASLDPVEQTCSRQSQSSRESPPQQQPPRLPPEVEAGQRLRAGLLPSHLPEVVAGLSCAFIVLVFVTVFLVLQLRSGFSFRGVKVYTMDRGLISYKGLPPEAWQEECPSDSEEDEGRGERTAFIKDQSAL
Test protocol: furin cleavage Z-score vs untreated control; higher = more cleavage, active = 3.5 or more, inactive = 1 or less, 8 variable residues between constant flanks
Condition context: 30 min
This is one part of the list. How many sequences the whole screen found active is unknown.
Observation type: furin cleavage Z-score

[
  {
    "Sequence string": "CAENVVCCSMAGNASASA [HC2141]",
    "Measurement": 1.03
  },
  {
    "Sequence string": "CADPSHITAEAGNASASA [HC1249]",
    "Measurement": -1.36
  },
  {
    "Sequence string": "CAPDLGVRVCAGNASASA [HC1452]",
    "Measurement": -0.786
  },
  {
    "Sequence string": "CADPDLSDGSAGNASASA [HC1359]",
    "Measurement": -0.78
  },
  {
    "Sequence string": "CAGHRMAWDMAGNASASA [HC318]",
    "Measurement": -0.169
  },
  {
    "Sequence string": "CACSGGAYDIAGNASASA [HC813]",
    "Measurement": 0.556
  },
  {
    "Sequence string": "CARFKKFATEAGNASASA [FS-1700]",
    "Measurement": -0.463
  },
  {
    "Sequence string": "CAPPSWDQMWAGNASASA [HC961]",
    "Measurement": 1
  },
  {
    "Sequence string": "CARPDRSSQGAGNASASA [FS-3016]",
    "Measurement": -1.46
  },
  {
    "Sequence string": "CARVRREDTPAGNASASA [FS-3125]",
    "Measurement": 6.22
  },
  {
    "Sequence string": "CAEVVTWTWVAGNASASA [HC147]",
    "Measurement": -0.799
  },
  {
    "Sequence string": "CALKRMQKRSAGNASASA [FS-610]",
    "Measurement": 10.5
  },
  {
    "Sequence string": "CAAAGQLDLSAGNASASA [HC1641]",
    "Measurement": -1.04
  },
  {
    "Sequence string": "CARVRRSTAEAGNASASA [FS-2388]",
    "Measurement": 8.54
  },
  {
    "Sequence string": "CAVVTCSMSYAGNASASA [HC2038]",
    "Measurement": -0.133
  }
]
